Biological target: HLA-B*44:02
Assay: IEDB peptide-MHC binding, purified MHC/direct/fluorescence; filed as Kd, often an IC50 or EC50 that approximates it; bounds were set here for any values at or beyond the usual limits of such assays
Conditions: source organism: Influenza A virus (A/egret/Hong Kong/757.3/2002(H5N1))
METRIC: Kd

## Task What does the record list as Kd for EEFTMVGRR ?
## Result ≥ 20 µM

---

Target: HLA-B*08:01
Experiment: IEDB peptide-MHC binding, purified MHC/competitive/fluorescence; filed as Kd, often an IC50 or EC50 that approximates it; bounds were set here for any values at or beyond the usual limits of such assays
Details: source organism: Influenza A virus (A/swine/Italy/1509-6/97(H1N1))
METRIC: Kd (nM)
Just the number in nM, nothing appended.

## Task What does the record list as Kd for WMACHSAAF ?
## Result 77.2

---

Target: HLA-B*15:01
Assay: IEDB peptide-MHC binding, purified MHC/competitive/fluorescence; filed as Kd, often an IC50 or EC50 that approximates it; bounds were set here for any values at or beyond the usual limits of such assays
Conditions: source organism: Listeria welshimeri serovar 6b str. SLCC5334
METRIC: Kd

## Task What does the record list as Kd for ELYENKPDV ?
## Result ≥ 20 µM

---

Target: HLA-A*68:02
Experiment: IEDB peptide-MHC binding, purified MHC/direct/fluorescence; filed as Kd, often an IC50 or EC50 that approximates it; bounds were set here for any values at or beyond the usual limits of such assays
Details: source organism: Orthohantavirus puumalaense
METRIC: Kd

## Task What does the record list as Kd for QIQAGNFHW ?
## Result ≥ 20 µM

---

Target: HLA-A*69:01
Experiment: IEDB peptide-MHC binding, purified MHC/direct/fluorescence; filed as Kd, often an IC50 or EC50 that approximates it; bounds were set here for any values at or beyond the usual limits of such assays
Conditions: source organism: Camelpox virus CMS
METRIC: pKd
Just the number, please; pKd means minus log10 of the concentration in mol/L.

## Task What does the record list as pKd for KVDDTFYYV ?
## Result 8.70

---

Biological target: HLA-A*26:03
Assay: IEDB peptide-MHC binding, purified MHC/competitive/fluorescence; filed as Kd, often an IC50 or EC50 that approximates it; bounds were set here for any values at or beyond the usual limits of such assays
Settings: source organism: Vibrio parahaemolyticus RIMD 2210633
METRIC: Kd

## Task What does the record list as Kd for ILRPLGIEY ?
## Result ≥ 20 µM

---

Molecular target: HLA-A*01:01
Assay: IEDB peptide-MHC binding, purified MHC/direct/fluorescence; filed as Kd, often an IC50 or EC50 that approximates it; bounds were set here for any values at or beyond the usual limits of such assays
Conditions: source organism: Mycobacterium tuberculosis
pKd: −log10 of the molar value.
METRIC: pKd

## Task What does the record list as pKd for IQAVFGFSL ?
## Result ≤ 4.70

---

Target: HLA-A*29:02
Assay: IEDB peptide-MHC binding, purified MHC/competitive/fluorescence; filed as Kd, often an IC50 or EC50 that approximates it; bounds were set here for any values at or beyond the usual limits of such assays
Settings: source organism: Giardia lamblia ATCC 50803
pKd: −log10 of the molar value.
METRIC: pKd

## Task What does the record list as pKd for LLDDGWAGE ?
## Result ≤ 4.70

Provenance of the data: the Immune Epitope Database (IEDB)
